Test system: MS2 coat protein
TEST PROTOCOL: apparent KD of MS2 coat protein; designed switch direction (-1 OFF switch, 1 ON switch): -1; higher = weaker reporter binding
DETAILS: Eterna round: R95; input ligand: microRNA oligo, concentration not stated
VALUE KIND: apparent KD of MS2 coat protein (nM)
Your answer should be a plain number; it is taken to be in nM.

Which apparent KD of MS2 coat protein is reported for this sequence? UUUUAACAUGAGGAUCACCCAUGUGAGGAUAUCGAAAUUUAUAUUUAUAUUUAUAAUACGAGAAGGCACAUUUU [JMF 94] (puzzle: Exclusion 1)
82.3

Same question for CUAGUCCGAGGAUAUAUUAUGUGAAACAUGAGGAUCACCCAUGUAAUAUGAUGGAUGUAAAUAGAAGGCGGACUAG [Mat - Exclusion 5 - JL mod - D25] (puzzle: Exclusion 5) please.
17.4

Same question for UUAUUGUGAGGAUAUCAGGUGUGCUAGCGUACUGGUACAUCUGAGAAGGCACAUGAGGAUCACCCAUGUUUCUU [JL-ex4-3.22 Brourd mod] (puzzle: Exclusion 4) please.
21.1

Same question for CCGCAUGCUGUCAGGAUAUCGUAGAUAAUAAUAUGCGAGAAGGGACAUGAGGAUCACCCAUGUAAGAGGCGGCC [Design for Riboswitch] (puzzle: Brourd's mod of Exclusion 4) please.
24.4

----------
Test system: MS2 coat protein
TEST PROTOCOL: apparent KD of MS2 coat protein; higher = weaker reporter binding
DETAILS: Eterna round: R107; input ligand: arginine 13.2 mM
VALUE KIND: apparent KD of MS2 coat protein (nM)
Your answer should be a plain number; it is taken to be in nM.

Which apparent KD of MS2 coat protein is reported for this sequence? "UGUAUGUGAUCUGAUACCAGAGUGACGCGAAAGCGACCUGAGGAUCACCCUGGUAAAUAACUCCCUUGGCAGCAGAUCGCAUACU"
43.8

Same question for AGUAGUUGACAAAAGUCAGCUACAAUUGAAGGAGCGGGUGGGUGCCCAGGUAGGUCGCAAUAACAUGAGGAUCACCCAUGUAUAA [ArgAS 2 #BothOrNeither #OpenEnded] please.
20

Same question for ACCUGUACGAAAAGUGCAGGACACGAAUAACGAGGACCGGUACGGCCGCCACUCGGAAAAUAACCUGAGGAUCACCCUGGUCGUG [TrypAS 7 #AlternativeMS2 #Zipper #StaticStem] please.
29.5

Same question for ACAUGAGGAUCACCCAUGUCAUGAGGUUCACGAGGACCGGUACGGCCGCCACUCGACAUGAGGGUCACCCGUGAAGGGAACACCC [xdmullin] please.
18.1

Same question for AUUUAUUAGACGGCCGCCACUUGAAAGCGACCUCAUAAAUGGGAACAUGAGGAUCACCCAUGUAAGAGGACCGGGUCUAGUAGAU [TryptB-ms2@45] please.
132

Same question for CUUCAACAUGAGGAUCACCCAUGUAGUGAUACCAGUCACUCAUACGACCCUUGGCAGCACAUUUUCUGUCGGCAUGUAGACGAUC [theeternabot_sameState_MS2_Theo_A_33] please.
73.6

Same question for AUGUUUGUGUGAGAUACCAGUGAGGCCACAUGAGGAUCACCCAUGUCCCUCACUCCGGCCCACCCUUGGCAGCUCUUAUAGUAAA [Exclusion Theophylline B GF 25] please.
12

Same question for AGUUAUUCGAACAUGGUUGACGAGUGGCAACGAGGACCGGUACGGCCGCCACUCGAAUAAACAUGAGGAUCACCCAUGUACAAAU [T''-M'-T'-T-MS2 - Design 10] please.
72.1

Same question for CUAUAAGUAACUGAUACCAGUGUACUGACAUGAGGAUCACCCAUGUUGGGUUUUGUUGUACACCCUUGGCAGCAGAAUCUUGUAG [AstrosExyTheB#15] please.
46.5

Same question for AGCCGGAUUACGGCCGCCACUGUAGACGUGACGAAAGUCGCGUCAACAUGAGGAUCACCCAUGUACAGGACCGGGUGGUCGGGCG [Omei Tryp B SS A v5] please.
74.1

Same question for GCCGGGCCUUCGGCCGCCACUGAGAGAGUCGUGUGAACAUGAGGAUCACCCAUGUAAUAUAUAUACAGGACCGGGAGGGCCCGGC [4.V] please.
12.6

Same question for CUUGUUUGUGGAAGGAGCGCGAUUACAUAACAUGAGGAUCACCCAUGUAAGAAAUUAUUCAUGCAGGUAGGUCGCCAUUGGUGGG [Same State Arginine B GF8] please.
64.1

Same question for AUUGUCGCGUCGGCCGCCACUGUCAUGGUUUUCGUGGAACACAUGAGGAUCACCCAUGUAAUUGACAGGACCGGGACGUGGCGGC [Vevea] please.
10.2

Same question for GUCUCUGGGAGAAGGAGCGUGAAGACAUGAGGAUCACCCAUGUAGAGGCGCCGACGGCGUUCGCAGGUAGGUCGCUCCCAGAGAC [#1 Same State - Arginine B Attempt #18 (HarryS)] please.
18.9

Same question for AGUCUUAUAGGAAGGAGCGCAUACUUCACAUGAGGAUCACCCAUGUCAAGACGUGAGUCAGUGCAGGUAGGUCGCCUAACUAAGA [Same State - Arginine B (Freestyle 13)] please.
27.2

Same question for AGUACUCGAACGGAUACCAGCCGGACAUGAGGAUCACCCAUGUCCUACCUAUGUUCGGUUGGCCCUUGGCAGCCGUUCGUGUACA [Omei Theo B SS A v6] please.
171

Same question for AAAUAAAUACAUGAGGAUCACCCAUGUGAAGGAGCGCCCGUUAGGGCAGGUAGGUCGCACAUGAAUAACUCCGCGCGAAAGCGCA [MAT - Exclusion Arginine A - Mod of Eli - D10] please.
41.8

Same question for UCUUGAGUUUCGGAUACCAGUGUUGUCGAUACAUGAGGAUCACCCAUGUUAGAGGAUGUACACCCUUGGCAGCCGGGUGUGGCGG [tftmullin] please.
12.2

Same question for UAAAGUAGGUCCAAUAAAACUACAUGUGAAGGAGCGCGCGAAAGCGCAGGUAGGUCGCACAUGAGGAUCACCCAUGUCCUACAAU [MAT - Exclusion Arginine A - Mod of Eli - D17] please.
42.6

Same question for UGAUCCUGCAGGGAUACCAGCGCCGCUUGAUAACUGUGCACAUGAGGAUCACCCAUGUAGCGCCCUUGGCAGCCCAGCUAGAGGG [Same State Theophylline B GF23] please.
21.8

Same question for AUCGUACCUGAUGAUACCAGCAUGUGCUCGUAACAUGAGGAUCACCCAUGUGAUCAGUGAUGCCCUUGGCAGCAUGAUCGGUACA [Same State - Theophylline B (Freestyle 16)] please.
67

Same question for AUCAUGGCCAUCGAUACCAGCUACAUGAGGAUCACCCAUGUAAACGGCCCGGUGAGAUGUAGCCCUUGGCAGCGAAGGGUCGAGG [Inenenatti] please.
14
